- test.details: Cytotoxicity against human SH-SY5Y cells assessed as cell viability at 12.5 uM after 24 hrs by MTT assay relative to control
- Type: cell-based
- settings: read-out: Activity
result.type: viability at 24 h, 12.5 µM (%)
Could you give me the number in %? Just the number is fine.

query: Dear colleague, please send me the reported viability at 24 h, 12.5 µM for Cc1cc(=O)oc2cc(OCCCCSC(=S)N3CCCCC3)ccc12 when you can.
result: 99.2

* * *

- test.details: Cytotoxicity against human SH-SY5Y cells assessed as cell viability at 25 uM after 24 hrs by MTT assay relative to control
- Type: cell-based
- settings: read-out: Activity
result.type: viability at 24 h, 25 µM
Write the quantity with the unit trailing the number.

query: Dear colleague, please send me the reported viability at 24 h, 25 µM for Cc1cc(=O)oc2cc(OCCCCSC(=S)N3CCCCC3)ccc12 when you can.
result: 101%
